Some sequences, each annotated with its measured folding stability dG unfold.
test: folding stability dG unfold from chymotrypsin proteolysis; higher = more stable
// note: answer is a bare numeric in kcal/mol

Some sequences with known folding stability dG unfold results, for comparison:
>>> measured_value("SAGGSAGGSAGGMSLSTSVESLTVFDSSGNVLEERTITVEKTVPLFGKPVYVYPTPSNTLSAGGSAGGSAGG [r17_325_JUSTAS]")
0.248
>>> measured_value("SAGGSAGGMIEVSYDPVKNRYIATFKFPEGEVTITLPADLSPEEKAAAIKAAAEAAAKEKGIKLSAGGSAGG [r6_679_JUSTAS]")
2
>>> measured_value("SAGTIKELLEKLPGFSVEVDPDDGTVWVMFRMPDHYVMIEIPIDKEDGNIKGIRIHRHDPNGEPKPIPLSAG [r5_367_TrROS]")
1.19
>>> measured_value("SAGGSAGGSGMTTTLTTEPRPDSTVVTTTTTTPTSVTTTTTVYDPDGNVVSTTTTTTPLPATSSAGGSAGGS [r12_710_JUSTAS]")
0.257
>>> measured_value("SPPVLYEITITFTYSDGTTVTKTINATVPRSQIDALIQKIIEEPGNKPYTKVTFNIYDKSTGTWTTITIDSA [r9_97_JUSTAS]")
5.76
>>> measured_value("SAGGGDWYKVTVKVDGNPEVAEALVEKLLEEVGEEVVFEPRPGEQTVTFYVPKELLPLLEELGIEVEPSAGG [r13_156_TrMRF]")
2.63
>>> measured_value("SAGGMVVTEEGDKTYITVRVPAPPGLPPEAVAAEIRERYGLSDLEVLEVEALPDGTLVVRLRDSTPASAGGS [r16_234_JUSTAS]")
2.55
>>> measured_value("SARVYRLPDGRLVRFEPVPPRPPVIVIPVDFRISPDDPETRRRLAEEIRRRLLEELGLPEDTPIFVDPSSAG [r14_453_TrMRF]")
4.45

Lookup: Give the measured folding stability dG unfold of SAGGSAKKEVYKINIKVYNKNGKKVKEIKIELPEELKGKTIEEIAKELAKKLNIEKIEVKIEPVKPSAGGSA [r15_333_TrROS_Hall] .
Found: 3.19

Lookup: Looking for the measured folding stability dG unfold of SAGGSAMSITISDISSVKNLTITETTPDGTPVTVTVNATTGSGPPTLTFTATTPGTGATTTTTTAFSAGGSA [r15_1006_JUSTAS] , can you help?
Found: -0.299

Lookup: I would be grateful if you could share the reported folding stability dG unfold for SAGGSAGGSKKIVLVLKVKKEKAKEKVEKAKKELEKALPKDYKIKSIEVKYDPETDKVIIVADSAGGSAGGS [r12_308_TrMRF] .
Found: 0.376

Lookup: Recorded folding stability dG unfold for SAGMVEVSVTVSPRADGTITVTITLTKTFPVKDSKGNLYLETTTKTVTVPVTSLEEAPVIVKEVIDKLSAGG [r19_218_JUSTAS] , please?
Found: 3.23

Lookup: Given the entry SASMTLTIPLPLKPGDRVVVEATHPLGYGFETEELPDGSVRLTLTVPTPDAPPATLHIRVYEPNTGKLASAG [r14_39_TrMRF] , report its measured folding stability dG unfold.
Found: 3.24

Lookup: # folding stability dG unfold lookup, item SAGGSAGGSAGMEISTKTLPGDKYELTITLPDSKGTPITVTITFTSEEEAKKKLEEIIKKSAGGSAGGSAGG [r11_819_JUSTAS]
Found: 2.7
